- Tested on: Candida albicans
- condition-details: 20 µM
- Description: Antifungal activity against Candida albicans ATCC 90028 (CO-ADD:FG_001); MIC in YNB media using NBS plates, by OD630
Potency and affinity values are given separately.
reported-property: Inhibition (%)
I only need the number, in %, no unit after it.

A selection of reference data follows.
INSERT INTO results (molecule, observed_value) VALUES
  ('O=c1oc2c(O)c(O)cc3c(=O)oc4c(O)c(O)cc1c4c23 [ELLAGIC ACID]', 8.04),
  ('C=C1C(=O)OC2CC1C(O)C/C(C)=C/CC/C(C)=C/C(O)CC2C (stereo not drawn)', 2.83),
  ('COc1ccc2c(c1)O[C@H]1c3ccc(O)cc3OC[C@@H]21', 12.9),
  ('CN1CCc2cc3c(cc2C(=O)Cc2ccc4c(c2C1)OCO4)OCO3.Cl [PROTOPINE HYDROCHLORIDE]', -1.7),
  ('CCC1NC(=O)C(NC(=O)c2ncccc2O)C(C)OC(=O)C(c2ccccc2)NC(=O)C2CC(=O)CCN2C(=O)C(Cc2ccccc2)N(C)C(=O)C2CCCN2C1=O (stereo not drawn)', -3.25);

Candida albicans assay, molecule `CCCCCC[C@H]([C@H](C)O)n1cnc2c(N)ncnc21.Cl` , recorded Inhibition = -0.37

Candida albicans assay, molecule Cc1cc2nc3[nH]c(=O)[nH]c(=O)c3nc2cc1C [LUMICHROME] , recorded Inhibition = 0.84

Candida albicans assay, molecule COC1/C=C\C=C(/C)C(=O)NC2=CC(=O)C(N)=C(CC(C)CC(OC)C(O)C(C)/C=C(\C)C1OC(N)=O)C2=O (stereo not drawn) , recorded Inhibition = -0.48

Ref: ChEMBL document CHEMBL4296183
